The origin of these recorded values is patent US8927500B2.

# targetUnderTest: UniProt O15151
# methodDescription: Competitive fluorescence polarization assay for MDMX
# Assay type: binding
# runParameters: competitive FP assay, read-out: IC50 (MDMX)
pIC50: −log10 of the molar value.
# pIC50 per record follows
measure: pIC50

compound: CCCCCCCCCC(=O)N[C@@H](CC(C)C)C(=O)N[C@H](C(=O)N[C@@H](Cc1ccccc1)C(=O)N[C@]1(C)CCCCCCC=CCCC[C@@](C)(C(=O)N[C@@H](CO)C(=O)N[C@@H](C)C(=O)N[C@@H](C)C(N)=O)NC(=O)[C@H](CCC(C)C)NC(=O)[C@H](CCC(N)=O)NC(=O)[C@H](C)NC(=O)[C@H](Cc2c[nH]c3ccccc23)NC(=O)[C@H](Cc2ccc(O)cc2)NC(=O)[C@H](CCC(=O)O)NC1=O)[C@@H](C)O [compound 282]
recordedResult: < 6.00

compound: CC[C@H](C)[C@H](NC(=O)[C@H](C)NC(=O)[C@H](C)NC(=O)[C@]1(C)CCC/C=C/CCCCCC[C@@](C)(NC(=O)[C@H](Cc2ccccc2)NC(=O)[C@@H](NC(=O)[C@H](CC(C)C)NC(C)=O)[C@@H](C)O)C(=O)N[C@@H](C)C(=O)N[C@@H](Cc2ccc(O)cc2)C(=O)N[C@@H](Cc2c[nH]c3ccccc23)C(=O)N[C@@H](C)C(=O)N[C@@H](CCC(N)=O)C(=O)N[C@@H](CC(C)C)C(=O)N1)C(=O)N[C@H](C)C(N)=O [compound 71]
recordedResult: 6.00 to 7.00

compound: CC(=O)N[C@@H](CC(C)C)C(=O)N[C@H](C(=O)N[C@@H](Cc1ccccc1)C(=O)N[C@]1(C)CCCCCCC=CCCC[C@@](C)(C(=O)N[C@@H](CO)C(=O)N[C@@H](C)C(=O)N[C@@H](C)C(N)=O)NC(=O)[C@H](CC(C)C)NC(=O)[C@H](CCC(N)=O)NC(=O)[C@H](C)NC(=O)[C@H](Cc2c[nH]c3ccccc23)NC(=O)[C@H](Cc2ccc(C(=O)O)cc2)NC(=O)[C@H](C)NC1=O)[C@@H](C)O (single isomer, unassigned) [compound 169]
recordedResult: 7.00 to 8.00

----------
# targetUnderTest: MDMX (Homo sapiens, UniProt O15151)
# Sequence (O15151 1-125): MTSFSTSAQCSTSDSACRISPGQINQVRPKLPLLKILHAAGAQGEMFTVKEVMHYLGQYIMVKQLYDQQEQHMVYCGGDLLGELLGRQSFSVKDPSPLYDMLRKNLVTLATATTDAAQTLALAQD
# methodDescription: Competitive fluorescence polarization assay for MDMX
# Type: binding
# runParameters: competitive FP assay, read-out: IC50 (MDMX)

compound: CC(=O)N[C@@H](CC(C)C)C(=O)N[C@H](C(=O)N[C@@H](Cc1ccccc1)C(=O)N[C@]1(C)CCCCCCC=CCCC[C@@](C)(C(=O)N[C@@H](CO)C(=O)NC(C)(C)C(=O)N[C@@H](C)C(=O)N[C@@H](C)C(N)=O)NC(=O)[C@H](CC(C)C)NC(=O)[C@H](CCC(N)=O)NC(=O)[C@H](C)NC(=O)[C@H](Cc2c[nH]c3ccccc23)NC(=O)[C@H](Cc2ccc(O)cc2)NC(=O)[C@H](C)NC1=O)[C@@H](C)O (single isomer, unassigned)
targetUnderTest: MDMX (Homo sapiens, UniProt O15151)
IC50: 100 to 1000 nM
